Source of measurements: PubChem BioAssay (NCI)

# Test system: 786-0 renal
# Test Method Notes: NCI-60 one-dose screen, 48 h
# Condition Notes: 10 µM unless noted
The panel holds about 83,000 compounds, 20% with a hit somewhere; the sample as a whole holds those more often. The source made the active and inactive calls. How the source made its calls: active means growth percent below 10; inactive means the rest.
Log the outcome using a class from Yes for active, No for inactive

Hello, I am checking results. What call was entered for CN(C)C1CCN(C(=O)c2ccc(NC(=O)Nc3ccc(-c4nc(N5CCOCC5)nc(N5CCOCC5)n4)cc3)cc2)CC1 ? Yes

Now the same for Cn1ccnc1C(=O)/C=C/c1ccc(CC(=O)Nc2ccc(Br)cc2)cc1 Yes

Now the same for CC[C@@H]1C(=O)N(C)c2cnc(Nc3ccc(C(=O)NC4CCN(C)CC4)cc3OC)nc2N1C1CCCC1 Yes
